// provenance: PubChem BioAssay AID1963839

# Tested on: 817829-284-R-J1-PDC complex spheroid viability;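 note: spheroids exposed to compounds for 7 days; 100% = DMSO vehicle-treated spheroids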
# protocol summary: Anticancer human tumor 817829-284-R-J1-PDC patient-derived colon adenocarcinoma cell line growth inhibition [POLQ]
# run conditions: second compound 0.316 µM; first compound 0.1 µM; stronger effect = lower value
recorded endpoint: viability, T/C (%)
I only need the number, in %, no unit after it.

These solved cases illustrate the format of a correct answer.
compound: CC1COCCN1c1cc(C2(O)CC3CCC(C2)O3)c2cnn(-c3ccn[nH]3)c2n1 (stereo not given) + Nc1ccc(C#CCN(C(=O)Cc2ncc(C(F)(F)F)cc2C(F)(F)F)c2ccc(F)cc2)nn1
recorded endpoint: viability, T/C
result number: 10.1
--
compound: C#Cc1c(F)ccc2cc(O)cc(-c3ncc4c(N5CC6CCC(C5)N6)nc(OCC56CCCN5CC(F)C6)nc4c3F)c12 (stereo not given) + Nc1ccc(C#CCN(C(=O)Cc2ncc(C(F)(F)F)cc2C(F)(F)F)c2ccc(F)cc2)nn1
recorded endpoint: viability, T/C
result number: 94.5
--
compound: CC1COCCN1c1cc(C2(S(C)(=N)=O)CC2)nc(-c2ccnc3[nH]ccc23)n1 (stereo not given) + Cc1cccc(N(C)C(=O)C2C(O)CCN2c2nc(C)cc(C(F)(F)F)c2C#N)c1
recorded endpoint: viability, T/C
result number: 102
--
compound: CC1COCCN1c1cc(C2(O)CC3CCC(C2)O3)c2cnn(-c3ccn[nH]3)c2n1 (stereo not given) + Cc1cccc(N(C)C(=O)C2C(O)CCN2c2nc(C)cc(C(F)(F)F)c2C#N)c1
recorded endpoint: viability, T/C
result number: 9.76

For record O=C(c1cc(Cc2n[nH]c(=O)c3ccccc23)ccc1F)N1CCN(C(=O)C2CC2)CC1 + Cc1cccc(N(C)C(=O)C2C(O)CCN2c2nc(C)cc(C(F)(F)F)c2C#N)c1 the listed viability, T/C is 61.2
